Attribution: the supplement of paper PMC6555819

Each entry below carries its recorded PBM binding z-score.
- System: RXRa homodimer (NR concentration 180 nM)
- ASSAY_SUMMARY: PBM binding z-score (relative to random genomic background probes); higher = stronger binding; sequences stand for … in GC…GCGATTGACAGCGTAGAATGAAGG
PARAMETER: PBM binding z-score

QUERY_SEQUENCE: GCTATTAGTTGAAAGGGCAATCGAATGATTCTCG
PARAMETER: PBM binding z-score
VALUE_MEASURED: 1.12
//
QUERY_SEQUENCE: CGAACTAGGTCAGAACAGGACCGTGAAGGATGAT
PARAMETER: PBM binding z-score
VALUE_MEASURED: 1.17
//
QUERY_SEQUENCE: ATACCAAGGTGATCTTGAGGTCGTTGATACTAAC
PARAMETER: PBM binding z-score
VALUE_MEASURED: 2.04
//
QUERY_SEQUENCE: TCTGCTAGGTCAACGATTGTCAGCTAATCTGCTA
PARAMETER: PBM binding z-score
VALUE_MEASURED: 2.41
//
QUERY_SEQUENCE: CCTACTGGGCCAAGGCCATTGATCAGTCAAAGCA
PARAMETER: PBM binding z-score
VALUE_MEASURED: -0.715
//
QUERY_SEQUENCE: TGAATGAGGTTATAAGATAAGGGAACGTTGCAAA
PARAMETER: PBM binding z-score
VALUE_MEASURED: 1.79
//
QUERY_SEQUENCE: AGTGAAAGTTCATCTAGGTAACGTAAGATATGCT
PARAMETER: PBM binding z-score
VALUE_MEASURED: 4.44
//
QUERY_SEQUENCE: CAAACTAGGTCACGAAAGTTCAAAGTCGAATGAC
PARAMETER: PBM binding z-score
VALUE_MEASURED: 5.99
//
QUERY_SEQUENCE: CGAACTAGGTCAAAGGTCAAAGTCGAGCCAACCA
PARAMETER: PBM binding z-score
VALUE_MEASURED: 10.3
//
QUERY_SEQUENCE: ATATGTAGGTTATCGGGTCTTTCAGTTTGCGCAT
PARAMETER: PBM binding z-score
VALUE_MEASURED: 1.03
//
QUERY_SEQUENCE: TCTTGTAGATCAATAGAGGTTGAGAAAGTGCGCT
PARAMETER: PBM binding z-score
VALUE_MEASURED: 0.307
//
QUERY_SEQUENCE: TCTTGTGGATCAGCAGGTTAAGAAAGCTGGCCAA
PARAMETER: PBM binding z-score
VALUE_MEASURED: 0.119
